Cited source: paper PMC10466926

- target: IsdH linker-NEAT3 (Staphylococcus aureus Mu50, UniProt Q931P4)
- Sequence (Q931P4 476-664): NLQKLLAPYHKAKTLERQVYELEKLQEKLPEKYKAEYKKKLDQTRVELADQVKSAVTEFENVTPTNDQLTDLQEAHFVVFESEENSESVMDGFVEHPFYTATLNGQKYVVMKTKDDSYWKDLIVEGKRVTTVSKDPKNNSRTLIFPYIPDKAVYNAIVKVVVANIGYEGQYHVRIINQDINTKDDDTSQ
- assay_text: SPR
- conditions: both partners purified
A collection of binders and their measured kon
reported_endpoint: kon (M⁻¹ s⁻¹)

[[record]]
binder = "VHH6 F108A (VHH, source: E. coli BL21(DE3), purified as the WT (Ni-NTA, SEC)) VHH: ELQLVESGGGLVQPGGSLSLSCEVSGFSFDDVDNFIIAWFRQAPGKEREGVSFLRKYDMSTYYAESVKGRFTISSDNARDTVYLQMTNLKPEDTAVYYCALDREGFVAEQGMDFWGKGTQVTVSS"
test_value = 189000

[[record]]
binder = "VHH6 E104A (VHH, source: E. coli BL21(DE3), purified as the WT (Ni-NTA, SEC)) VHH: ELQLVESGGGLVQPGGSLSLSCEVSGFSFDDVDNFIIAWFRQAPGKEREGVSFLRKYDMSTYYAESVKGRFTISSDNARDTVYLQMTNLKPEDTAVYYCALDRAGFVFEQGMDFWGKGTQVTVSS"
test_value = 151000

[[record]]
binder = "VHH6 D33A (VHH, source: E. coli BL21(DE3), purified as the WT (Ni-NTA, SEC)) VHH: ELQLVESGGGLVQPGGSLSLSCEVSGFSFDDVANFIIAWFRQAPGKEREGVSFLRKYDMSTYYAESVKGRFTISSDNARDTVYLQMTNLKPEDTAVYYCALDREGFVFEQGMDFWGKGTQVTVSS"
test_value = 62000

[[record]]
binder = "VHH6 F106A (VHH, source: E. coli BL21(DE3), purified as the WT (Ni-NTA, SEC)) VHH: ELQLVESGGGLVQPGGSLSLSCEVSGFSFDDVDNFIIAWFRQAPGKEREGVSFLRKYDMSTYYAESVKGRFTISSDNARDTVYLQMTNLKPEDTAVYYCALDREGAVFEQGMDFWGKGTQVTVSS"
test_value = 99000

[[record]]
binder = "VHH6 Y62A (VHH, source: E. coli BL21(DE3), purified as the WT (Ni-NTA, SEC)) VHH: ELQLVESGGGLVQPGGSLSLSCEVSGFSFDDVDNFIIAWFRQAPGKEREGVSFLRKYDMSTAYAESVKGRFTISSDNARDTVYLQMTNLKPEDTAVYYCALDREGFVFEQGMDFWGKGTQVTVSS"
test_value = 46000

[[record]]
binder = "VHH6 V107A (VHH, source: E. coli BL21(DE3), purified as the WT (Ni-NTA, SEC)) VHH: ELQLVESGGGLVQPGGSLSLSCEVSGFSFDDVDNFIIAWFRQAPGKEREGVSFLRKYDMSTYYAESVKGRFTISSDNARDTVYLQMTNLKPEDTAVYYCALDREGFAFEQGMDFWGKGTQVTVSS"
test_value = 109000

